Settings: Crystal; visual observation
For each of the molecules below, state its Triple point temperature.
Value expressed in K; do not type the unit.

Query: Item under review: N#Cc1ccc(-c2ccc([N+](=O)[O-])cc2C#N)cc1C#N [4-nitro-[1,1'-biphenyl]-2,3',4'-tricarbonitrile] . Reported Triple point temperature?
Result: 472.15

Query: Item under review: N#Cc1ccc(-c2ccc(N)cc2C#N)cc1C#N [4-amino-[1,1'-biphenyl]-2,3',4'-tricarbonitrile] . Reported Triple point temperature?
Result: 558.15

Query: Item under review: N#Cc1cc([N+](=O)[O-])ccc1-c1ccc2c(c1)C(=O)NC2=O [2-(1,3-dioxoisoindolin-5-yl)-5-nitrobenzonitrile] . Reported Triple point temperature?
Result: 567.15

Query: Item under review: N#Cc1cc(N)ccc1-c1ccc2c(c1)C(=O)NC2=O [5-amino-2-(1,3-dioxoisoindolin-5-yl)benzonitrile] . Reported Triple point temperature?
Result: 589.15

* * *

Experiment: Molar enthalpy of transition or fusion
Conditions: Crystal 1; DSC
value kind: Molar enthalpy of transition or fusion
Express your answer as a number followed by its unit.

Query: Item under review: `CCCCN(CCCC)c1ccc(N=Nc2ccc(-c3ccc(C#N)c(C#N)c3)c(C#N)c2)cc1` . Reported Molar enthalpy of transition or fusion?
Result: 8.39 kcal/mol

Query: Item under review: `CCCCN(CCCC)c1ccc(N=Nc2ccc(-c3ccc4c(c3)C(=O)NC4=O)c(C#N)c2)cc1` . Reported Molar enthalpy of transition or fusion?
Result: 6.72 kcal/mol

Query: Item under review: `CCCCN(CCCC)c1ccc(N=Nc2cccc(C#N)c2-c2ccc(C#N)c(C#N)c2)cc1` . Reported Molar enthalpy of transition or fusion?
Result: 8.48 kcal/mol

Query: Item under review: `CCN(CC)c1ccc(N=Nc2ccc(-c3ccc(C#N)c(C#N)c3)c(C#N)c2)cc1` . Reported Molar enthalpy of transition or fusion?
Result: 8.13 kcal/mol

* * *

Settings: Crystal 1; DSC
Numbers after ± are expanded uncertainties.
value kind: Triple point temperature
Express your answer as a number followed by its unit.

Query: Item under review: `CCCCN(CCCC)c1ccc(N=Nc2ccc(-c3ccc4c(c3)C(=O)NC4=O)c(C#N)c2)cc1` . Reported Triple point temperature?
Result: 456.85 ± 0.8 K

Query: Item under review: `CCCCN(CCCC)c1ccc(N=Nc2cccc(C#N)c2-c2ccc(C#N)c(C#N)c2)cc1` . Reported Triple point temperature?
Result: 469.05 ± 0.8 K

Query: Item under review: `CCN(CC)c1ccc(N=Nc2ccc(-c3ccc(C#N)c(C#N)c3)c(C#N)c2)cc1` . Reported Triple point temperature?
Result: 503.45 ± 0.8 K

Query: Item under review: `CCCCCCCCN(CCCCCCCC)c1ccc(N=Nc2ccc(-c3ccc(C#N)c(C#N)c3)c(C#N)c2)cc1` . Reported Triple point temperature?
Result: 368.35 ± 0.8 K

Query: Item under review: `CCCCN(CCCC)c1ccc(N=Nc2ccc(-c3ccc(C#N)c(C#N)c3)c(C#N)c2)cc1` . Reported Triple point temperature?
Result: 427.35 ± 0.8 K
